# measured.on: BRD4_BD1 bromodomain (Homo sapiens (Human), UniProt O60885)
# test.method.notes: BRD4 BD1 biochemical binding assay (TR-FRET)
# reported.conditions: displacement of biotinylated ligand Compound C
value.type: IC50 (nM)
Please reply with the bare figure in nM and do not write the unit itself.

- compound: "Cc1sc2c(c1C)C(c1ccc(C#CCN(C)C)cc1)=N[C@@H](CC(=O)OC(C)(C)C)c1nnc(C)n1-2"
  value.type: "IC50"
  unit.descriptor: "nM"
  reported.measurement: 14.5
- compound: "Cc1sc2c(c1C)C(c1ccc(C#CCN)cc1)=N[C@H](CC(=O)OC(C)(C)C)c1nnc(C)n1-2"
  value.type: "IC50"
  unit.descriptor: "nM"
  reported.measurement: 199
- compound: "Cc1sc2c(c1C)C(c1ccc(C#CCNC(=N)N)cc1)=N[C@@H](CC(=O)OC(C)(C)C)c1nnc(C)n1-2"
  value.type: "IC50"
  unit.descriptor: "nM"
  reported.measurement: 7.2
- compound: "Cc1sc2c(c1C)C(c1ccc(C#CCCN)cc1)=N[C@@H](CC(=O)OC(C)(C)C)c1nnc(C)n1-2"
  value.type: "IC50"
  unit.descriptor: "nM"
  reported.measurement: 13
- compound: "Cc1sc2c(c1C)C(c1ccc(C#CCO)cc1)=N[C@@H](CC(=O)OC(C)(C)C)c1nnc(C)n1-2"
  value.type: "IC50"
  unit.descriptor: "nM"
  reported.measurement: 17.8
- compound: "CCC#Cc1ccc(C2=N[C@@H](CC(=O)OC(C)(C)C)c3nnc(C)n3-c3sc(C)c(C)c32)cc1 [Compound 13a]"
  value.type: "IC50"
  unit.descriptor: "nM"
  reported.measurement: 23.4

# next compound below
**Query** Please give the measured IC50 for this compound: `Cc1sc2c(c1C)C(c1ccc(C#CCN)cc1)=N[C@@H](CC(=O)OC(C)(C)C)c1nnc(C)n1-2`
**Result** 15.5

---

# measured.on: BRD4 (Homo sapiens (Human), UniProt O60885)
# test.method.notes: BRD4 degradation assay in PC3-Steap1 cells
# Type: cell-based
# reported.conditions: 4 hours, complete loss = −100%, read-out: Sinf (maximum degradation, percent change in protein level)
value.type: Dmax
Dear colleague, please send the value followed by its unit.

**Query** // lookup Dmax for Cc1sc2c(c1C)C(c1ccc(C#CC(C)N)cc1)=N[C@@H](CC(=O)OC(C)(C)C)c1nnc(C)n1-2 (stereo partly shown) [Compound 11a]
**Result** -43.3%

**Query** Form field: reported Dmax of `Cc1sc2c(c1C)C(c1ccc(C#CCN(C)C)cc1)=N[C@@H](CC(=O)OC(C)(C)C)c1nnc(C)n1-2`
**Result** -41.9%

**Query** Please report the recorded Dmax for `CNCC#Cc1ccc(C2=N[C@@H](CC(=O)OC(C)(C)C)c3nnc(C)n3-c3sc(C)c(C)c32)cc1` .
**Result** -21.8%

**Query** // Dmax lookup, key: `Cc1sc2c(c1C)C(c1ccc(C#CCNC(=N)N)cc1)=N[C@@H](CC(=O)OC(C)(C)C)c1nnc(C)n1-2`
**Result** -86%

---

# measured.on: BRD4 (Homo sapiens (Human))
# test.method.notes: BRD4 degradation assay in EoL-1 cells
# Type: cell-based
# reported.conditions: 4 hours, immunofluorescence, read-out: Degradation of BRD4 Average EC50
The entries below are paired with their reported DC50.

Field: example entries. Status: answers known.
- molecule: "CC(=O)NCC#Cc1ccc(C2=N[C@@H](CC(=O)OC(C)(C)C)c3nnc(C)n3-c3sc(C)c(C)c32)cc1 [Compound 10a]"
  value.type: "DC50"
  reported.measurement: "> 20 µM"
- molecule: "Cc1sc2c(c1C)C(c1ccc(C#CCN)cc1)=N[C@H](CC(=O)OC(C)(C)C)c1nnc(C)n1-2"
  value.type: "DC50"
  reported.measurement: "0.009 µM"
- molecule: "COC(=O)c1cc2c(cc1CS(C)(=O)=O)-c1cn(C)c(=O)c3[nH]cc(c13)CN2c1ncc(C#CCN)cc1F"
  value.type: "DC50"
  reported.measurement: "> 20 µM"

**Query** API: value(readout=DC50, system=BRD4 (Homo sapiens (Human))) for record `Cc1sc2c(c1C)C(c1ccc(C#CCN)cc1)=N[C@@H](CC(=O)OC(C)(C)C)c1nnc(C)n1-2`
**Result** 0.0013 µM

**Query** Please provide the recorded DC50 for `Cc1sc2c(c1C)C(c1ccc(C#CCN(C)C)cc1)=N[C@@H](CC(=O)OC(C)(C)C)c1nnc(C)n1-2` , tested on BRD4 (Homo sapiens (Human)).
**Result** > 20 µM

**Query** Field: DC50 (BRD4 (Homo sapiens (Human))). Entry: `CNCC#Cc1ccc(C2=N[C@@H](CC(=O)OC(C)(C)C)c3nnc(C)n3-c3sc(C)c(C)c32)cc1`
**Result** > 20 µM

---

Readings of Dmax for the listed molecules
# measured.on: BRD4 (Homo sapiens (Human))
# test.method.notes: BRD4 degradation assay in PC3-Steap1 cells
# Assay type: cell-based
# reported.conditions: 4 hours, complete loss = −100%, read-out: Sinf (maximum degradation, percent change in protein level)
# Experimental: 2 μL of each sample from the serial dilution was transferred to 98 μL of assay media as an intermediate dilution. 5 μL of intermediate dilution was added to 45 μL of cell plate. Columns 1, 2, 23 and 24 were treated with only 0.2% w/v final concentration of DMSO for data normalization as “neutral controls”. After compound treatment, cell plates were stored in a 37° C. incubator for 4 hours. […] Quantitative fluorescence imaging of BRD4 was carried out using an Opera Phenix High-Content Screening System. […]
Kindly provide the numeric value in % only, without the unit symbol.

- smiles.code: "Cc1sc2c(c1C)C(c1ccc(CCCN)cc1)=N[C@@H](CC(=O)OC(C)(C)C)c1nnc(C)n1-2"
  Dmax (%): -57.6
- smiles.code: "Cc1sc2c(c1C)C(c1ccc(C#CCCN)cc1)=N[C@@H](CC(=O)OC(C)(C)C)c1nnc(C)n1-2"
  Dmax (%): -54.7
- smiles.code: "Cc1sc2c(c1C)C(c1ccc(C#CCNO)cc1)=N[C@@H](CC(=O)OC(C)(C)C)c1nnc(C)n1-2"
  Dmax (%): -92.6
- smiles.code: "Cc1sc2c(c1C)C(c1ccc(C#CCN)cc1)=N[C@H](CC(=O)OC(C)(C)C)c1nnc(C)n1-2"
  Dmax (%): -74.5

**Query** Name the reported Dmax value associated with the molecule `Cc1sc2c(c1C)C(c1ccc(/C=C/CN)cc1)=N[C@@H](CC(=O)OC(C)(C)C)c1nnc(C)n1-2`
**Result** -73.1

**Query** # input molecule: `Cc1sc2c(c1C)C(c1ccc(C#CCN)cc1)=N[C@@H](CC(=O)OC(C)(C)C)c1nnc(C)n1-2` ; wanted: its Dmax
**Result** -84.6

---

# measured.on: BRD4 (Homo sapiens (Human))
# test.method.notes: BRD4 degradation assay in PC3-Steap1 cells
# Assay type: cell-based
# reported.conditions: 4 hours, immunofluorescence, read-out: Degradation of BRD4 Average EC50
value.type: DC50 (nM)
Give the value, in units of nM, as a plain number.

- compound: "Cc1sc2c(c1C)C(c1ccc(C#CCNC(=N)N)cc1)=N[C@@H](CC(=O)OC(C)(C)C)c1nnc(C)n1-2 [Compound 5a]"
  reported.measurement: 101

**Query** Quick one: DC50 for Cc1sc2c(c1C)C(c1ccc(C#CCN)cc1)=N[C@H](CC(=O)OC(C)(C)C)c1nnc(C)n1-2 [Compound 1b] ?
**Result** 10.5

**Query** Need DC50, item Cc1sc2c(c1C)C(c1ccc(C#CCCN)cc1)=N[C@@H](CC(=O)OC(C)(C)C)c1nnc(C)n1-2 [Compound 4a]
**Result** 3.4

**Query** // DC50 lookup, key: Cc1sc2c(c1C)C(c1ccc(C#CCN)cc1)=N[C@@H](CC(=O)OC(C)(C)C)c1nnc(C)n1-2 [Compound 1a]
**Result** 1.4

---

# reported IC50; entries follow
# measured.on: BRD4_BD2 bromodomain (Homo sapiens (Human))
# test.method.notes: BRD4 BD2 biochemical binding assay (TR-FRET)
# reported.conditions: displacement of biotinylated ligand Compound C
# output: numeric value plus its unit

- molecule: "Cc1sc2c(c1C)C(c1ccc(C#CCCN)cc1)=N[C@@H](CC(=O)OC(C)(C)C)c1nnc(C)n1-2 [Compound 4a]"
  measured.on: "BRD4_BD2 bromodomain (Homo sapiens (Human))"
  reported.measurement: "17.7 nM"
- molecule: "CC(=O)NCC#Cc1ccc(C2=N[C@@H](CC(=O)OC(C)(C)C)c3nnc(C)n3-c3sc(C)c(C)c32)cc1 [Compound 10a]"
  measured.on: "BRD4_BD2 bromodomain (Homo sapiens (Human))"
  reported.measurement: "10.7 nM"
- molecule: "Cc1sc2c(c1C)C(c1ccc(C#CCO)cc1)=N[C@@H](CC(=O)OC(C)(C)C)c1nnc(C)n1-2 [Compound 7a]"
  measured.on: "BRD4_BD2 bromodomain (Homo sapiens (Human))"
  reported.measurement: "10.3 nM"
- molecule: "CNCC#Cc1ccc(C2=N[C@@H](CC(=O)OC(C)(C)C)c3nnc(C)n3-c3sc(C)c(C)c32)cc1 [Compound 2a]"
  measured.on: "BRD4_BD2 bromodomain (Homo sapiens (Human))"
  reported.measurement: "17.1 nM"
- molecule: "CC#Cc1ccc(C2=N[C@@H](CC(=O)OC(C)(C)C)c3nnc(C)n3-c3sc(C)c(C)c32)cc1 [Compound 14a]"
  measured.on: "BRD4_BD2 bromodomain (Homo sapiens (Human))"
  reported.measurement: "20.3 nM"
- molecule: "Cc1sc2c(c1C)C(c1ccc(C#CCN(C)C)cc1)=N[C@@H](CC(=O)OC(C)(C)C)c1nnc(C)n1-2 [Compound 3a]"
  measured.on: "BRD4_BD2 bromodomain (Homo sapiens (Human))"
  reported.measurement: "20.7 nM"

Then there is this molecule:
**Query** Entry Cc1sc2c(c1C)C(c1ccc(C#CCNC(=N)N)cc1)=N[C@@H](CC(=O)OC(C)(C)C)c1nnc(C)n1-2 [Compound 5a] has what IC50?
**Result** 8.5 nM
